# Tested on: Rattus norvegicus
# ASSAY_INFO: Anti-inflammatory activity in Rattus norvegicus Wistar albino (rat) assessed as inhibition of carrageenan-induced paw edema after 180 min (reference value: 22.3%)
# Assay type: functional
molecules and their reported inhibition (INH)

MOLECULE	TARGET_OR_TEST_SYSTEM	inhibition (INH)
CCOC(=O)c1c(C)nn(-c2ccccc2)c1OCCCOc1nc(C)cc(C)c1C#N	Rattus norvegicus	16.8%
CCOC(=O)c1c(C)nn(-c2ccccc2)c1OCCCn1c(C)cc(C)c(C#N)c1=O	Rattus norvegicus	20.4%
CCOC(=O)c1c(C)nn(-c2ccccc2)c1OCCCN1C(=O)c2ccccc2C1=O	Rattus norvegicus	39.3%
COC(=O)c1c(C)nn(-c2ccccc2)c1OCCCOc1c(C(=O)OC)c(C)nn1-c1ccccc1	Rattus norvegicus	17.9%
COC(=O)c1c(C)nn(-c2ccccc2)c1OCCCN1C(=O)c2ccccc2C1=O	Rattus norvegicus	1.7%
CS(=O)(=O)Nc1ccc([N+](=O)[O-])cc1Oc1ccccc1 [NIMESULIDE]	Rattus norvegicus	2.54%
COC(=O)c1c(C)nn(-c2ccccc2)c1OCCCn1c(C)cc(C)c(C#N)c1=O	Rattus norvegicus	18.5%
COC(=O)c1c(C)nn(-c2ccccc2)c1OCCCOc1nc(C)cc(C)c1C#N	Rattus norvegicus	24.9%
